biological target: human IL-21R expressed on cells (human, UniProt Q9HBE5 20-538); test: cell-based or functional assay
Sequence (Q9HBE5 20-538 limits assumed): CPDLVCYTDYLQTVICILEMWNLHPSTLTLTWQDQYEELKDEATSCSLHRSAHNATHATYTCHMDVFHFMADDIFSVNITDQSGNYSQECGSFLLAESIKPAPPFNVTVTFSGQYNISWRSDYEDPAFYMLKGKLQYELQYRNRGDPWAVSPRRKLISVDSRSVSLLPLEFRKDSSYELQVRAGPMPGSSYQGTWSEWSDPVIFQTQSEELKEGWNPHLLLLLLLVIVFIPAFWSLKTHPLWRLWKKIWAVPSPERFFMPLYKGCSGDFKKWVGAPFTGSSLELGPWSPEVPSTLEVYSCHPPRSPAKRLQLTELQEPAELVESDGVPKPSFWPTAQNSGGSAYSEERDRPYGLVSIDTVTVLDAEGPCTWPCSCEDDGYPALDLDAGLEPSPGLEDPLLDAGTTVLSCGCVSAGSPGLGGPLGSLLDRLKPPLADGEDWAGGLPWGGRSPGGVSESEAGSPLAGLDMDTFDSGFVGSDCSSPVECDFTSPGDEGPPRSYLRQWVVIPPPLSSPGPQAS

binder	Human IL-21R-BaF3 Proliferation IC50 / nM
AbU (antibody, human IgG1, V domains shown, Human IgG1 triple-mutant (L234A, L235A, G237A); Framework limits derived; also called VHP/VL25; VHPTM/VL25) VH: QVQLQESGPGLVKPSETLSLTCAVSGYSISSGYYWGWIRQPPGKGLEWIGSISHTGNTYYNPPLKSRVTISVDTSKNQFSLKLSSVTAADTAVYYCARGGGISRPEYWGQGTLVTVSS VL: SSELTQDPAVSVALGQTVRITCQGDSLRTYYASWYQQKPGQAPVLVIYGKHKRPSGIPDRFSGSSSGNTASLTITGAQAEDEADYYCTTRSNKGNPHVLFGGGTQLTVL	0.73
AbD (antibody, human IgG1, V domains shown, Full-length human IgG1 / human lambda, transient, conditioned medium; Framework limits derived; also called VHP/VL13) VH: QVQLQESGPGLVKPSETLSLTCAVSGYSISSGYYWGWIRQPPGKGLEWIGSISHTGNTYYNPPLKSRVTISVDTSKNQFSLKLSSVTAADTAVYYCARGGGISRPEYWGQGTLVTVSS VL: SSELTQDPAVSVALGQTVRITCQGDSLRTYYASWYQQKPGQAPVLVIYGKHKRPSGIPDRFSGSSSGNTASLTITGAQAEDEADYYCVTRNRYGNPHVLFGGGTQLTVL	0.91
AbP (antibody, human IgG1, V domains shown, Human IgG1 triple-mutant (L234A, L235A, G237A); Framework limits derived; also called VHP/VL20; VHPTM/VL20) VH: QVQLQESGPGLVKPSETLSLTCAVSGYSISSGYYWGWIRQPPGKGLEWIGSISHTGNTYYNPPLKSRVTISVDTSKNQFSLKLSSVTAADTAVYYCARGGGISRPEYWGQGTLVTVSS VL: SSELTQDPAVSVALGQTVRITCQGDSLRTYYASWYQQKPGQAPVLVIYGKHKRPSGIPDRFSGSSSGNTASLTITGAQAEDEADYYCVSRSAKGNPHVLFGGGTQLTVL	0.75
AbH (antibody, human IgG1, V domains shown, Full-length human IgG1 / human lambda, transient, conditioned medium; Framework limits derived; also called VHP/VL19) VH: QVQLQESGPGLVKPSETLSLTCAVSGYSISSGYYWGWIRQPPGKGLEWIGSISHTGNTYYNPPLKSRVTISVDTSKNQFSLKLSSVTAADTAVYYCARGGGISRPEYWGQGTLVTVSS VL: SSELTQDPAVSVALGQTVRITCQGDSLRTYYASWYQQKPGQAPVLVIYGKHKRPSGIPDRFSGSSSGNTASLTITGAQAEDEADYYCVARAVRGNPHVLFGGGTQLTVL	0.94
AbK (antibody, human IgG1, V domains shown, Full-length human IgG1 / human lambda, transient, conditioned medium; Framework limits derived; also called VH3/VL3) VH: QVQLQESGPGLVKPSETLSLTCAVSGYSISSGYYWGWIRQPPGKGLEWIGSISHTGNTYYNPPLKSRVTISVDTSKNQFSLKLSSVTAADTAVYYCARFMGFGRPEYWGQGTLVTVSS VL: SSELTQDPAVSVALGQTVRITCQGDSLRTYYASWYQQKPGQAPVLVIYGKHKRPSGIPDRFSGSSSGNTASLTITGAQAEDEADYYCVSRAVVGNPHVLFGGGTQLTVL	0.98
